- Test system: RPMI-8226
- EXPERIMENT: NCI tumour cell line growth inhibition, 48 h
Calls of active or inactive are those of the source. Cut-off read from the data, not from the text of the source: active = GI50 up to about 1.1 µM and inactive = higher.
MEASURED METRIC: GI50

CCOC(=O)NC(Nc1ccc(C(=O)OCC)cc1)(C(F)(F)F)C(F)(F)F :: > 100 µM (inactive)
O=C(CN(c1ccccc1)c1ccccc1)N1c2ccccc2C2C=CC=CC21 (stereo not drawn) :: 8.22 µM (inactive)

Moving on to another compound below.
Request: Bench note: what GI50 did C[N+](C)(C)c1ccc(C(N)C(=O)O)cc1 (stereo not drawn) show?
Result: > 100 µM (inactive)

---

- Tested on: K562
- EXPERIMENT: NCI tumour cell line growth inhibition, 48 h
Activity calls are given as the source filed them. Cut-off read from the data, not from the text of the source: active = GI50 up to about 1.1 µM and inactive = higher.
// one of Y for active, N for inactive, no free text

Reference set, count: 5
O=C(CC(=O)C1CCOC1=O)C(=O)Nc1cccc(Cl)c1 (configuration not stated) :: N
CC12CCC3=C(CSC4=C3CSc3ccccc34)C1=CCCC2=O (configuration not stated) :: N
CN1Cc2c(nc(-c3ccc(Br)cc3)c[n+]2[O-])N(C)C1 :: N
c1ccc(/C(=N/Nc2ccccn2)c2ncccn2)cc1 :: Y
Cc1cc(OCc2nnc3n2N=C(c2cc(F)c(Cl)cc2Cl)/C(=C/c2ccc(-c4ccc(Cl)cc4)o2)S3)ccc1Cl :: N

Request: Recorded call for `COc1ccccc1Nc1nc(N)nc(N)c1N` ?
Result: N

Request: Entry to check: `C=CC[C@H](N=C(SC)SC)C(=O)N1C(=O)N(C)[C@@H](C)[C@H]1c1ccccc1`
Result: N

Request: Entry to check: `C[C@@H](NC(=O)Nc1cccc(C(=O)Nc2cc(C(C)(C)C)ccc2C(=O)O)n1)c1ccccc1`
Result: N

Request: Entry to check: `CN(C)CCCSc1nc2c(c(=N)n1-c1ccccc1)c(=S)n(-c1ccccc1)c(=S)n2-c1ccccc1`
Result: Y

Request: Entry to check: `CC(=O)NCc1nc(C#N)c(N)o1`
Result: N

Request: Entry to check: Cc1ccc(-c2nc3ccccc3c(=O)n2NC2OC(CO)C(O)C(O)C2O)cc1 (configuration not stated)
Result: N

Request: Entry to check: `CN1CSC(=S)N(c2cccc(C(F)(F)F)c2)C1`
Result: N

Request: Entry to check: `O=C(CCO)OCCCCCC/C=C\CCCCCC/C=C\CCCCCCCCOC(=O)CCO`
Result: N

Request: Entry to check: CC1(C)CCOC(Sc2ccccc2)C1 (configuration not stated)
Result: N

Request: Entry to check: `Oc1ccc(Cl)cc1Cc1cc(Cl)cc(Cc2cc(Cl)ccc2O)c1O`
Result: N

Request: Entry to check: Cc1nn(C(=O)c2ccc(Cl)cc2)c2c1C(/C=C/c1ccccc1)SC(=N)N2 (configuration not stated)
Result: N
